system: Hs578T; experiment: normalised response (% of control), CellTiter-Glo; higher = more viable cells (100 = DMSO, 0 = benzethonium chloride kill control); details: incubation time: 72 h
observable: normalised response (%)
The answer is to be given in %; state only the numeric part.

Example compounds with recorded normalised response:
compound	normalised response [%]
CC/C(=C(\c1ccc(O)cc1)c1ccc(OCCN(C)C)cc1)c1ccccc1 [4-hydroxytamoxifen] (10000 nM)	80.8
Nc1ccccc1NC(=O)c1ccc(CNc2nccc(-c3cccnc3)n2)cc1 [Mocetinostat] (10000 nM)	29
C[C@]12O[C@H](C[C@]1(O)CO)n1c3ccccc3c3c4c(c5c6ccccc6n2c5c31)CNC4=O [Lestaurtinib] (1000 nM)	61.4
Cc1cccc(-c2nn3c(c2-c2ccnc4ccc(C(N)=O)cc24)CCC3)n1 [Galunisertib] (1000 nM)	106

Next, consider the following compound.
Problem: What is its normalised response for Hs578T? Entry: CCC/C=C/C=C/C(=O)O[C@H]1/C(=C/C(=O)OC)C[C@H]2C[C@H]([C@@H](C)O)OC(=O)C[C@H](O)C[C@@H]3C[C@H](OC(C)=O)C(C)(C)[C@](O)(C[C@@H]4C/C(=C/C(=O)OC)C[C@H](/C=C/C(C)(C)[C@]1(O)O2)O4)O3 [Bryostatin 1] (100 nM)
Solution: 88.6

* * *

tested on: DU-4475; assay: normalised viability (% of control), CellTiter-Blue; higher = more viable cells (about 100 = DMSO control); conditions: 100 nM; incubation time: 72 h
Below, each of the molecules is paired with its reported normalised viability value.
Quick note: give the figure in %, leave out the unit.

                              record_smiles            observable  value
0  COc1ccc(-c2cc3c(C)nc(N)nc3n([C@H]3CC[C@H](OCCO)CC3)c2=O)cn1  normalised viability     89

Problem: normalised viability for Cc1ccc(Nc2nccc(N(C)c3ccc4c(C)n(C)nc4c3)n2)cc1S(N)(=O)=O ?
Solution: 104

Problem: Data request, read-out normalised viability, for O=S(=O)(c1cccc2cnccc12)N1CCCNCC1
Solution: 101

Problem: Any idea what normalised viability was measured for C[C@]12C=CC(=O)C=C1CC[C@@H]1[C@@H]2[C@@H](O)C[C@@]2(C)[C@H]1CC[C@]2(O)C(=O)CO ?
Solution: 98.1

Problem: What measured normalised viability goes with Nc1ccccc1NC(=O)c1ccc(CNc2nccc(-c3cccnc3)n2)cc1 ?
Solution: 103

* * *

system: CAL-85-1; assay: normalised viability (% of control), CellTiter-Blue; higher = more viable cells (about 100 = DMSO control); conditions: incubation time: 72 h
observable: normalised viability

Use these answered entries as a reference point.
compound	normalised viability
CCC/C=C/C=C/C(=O)O[C@H]1/C(=C/C(=O)OC)C[C@H]2C[C@H]([C@@H](C)O)OC(=O)C[C@H](O)C[C@@H]3C[C@H](OC(C)=O)C(C)(C)[C@](O)(C[C@@H]4C/C(=C/C(=O)OC)C[C@H](/C=C/C(C)(C)[C@]1(O)O2)O4)O3 [Bryostatin 1] (30 nM)	111%
COc1ccc(-c2cc3c(C)nc(N)nc3n([C@H]3CC[C@H](OCCO)CC3)c2=O)cn1 (3000 nM)	10.4%
COc1cc(CCc2cc(NC(=O)c3ccc(N4CC(C)NC(C)C4)cc3)n[nH]2)cc(OC)c1 (centres undefined) [AZD4547] (300 nM)	95.5%
CC[C@@]1(O)C(=O)OCc2c1cc1n(c2=O)Cc2cc3c(CN(C)C)c(O)ccc3nc2-1 [Topotecan] (300 nM)	66.9%
O=C(NC[C@H](O)CO)c1ccncc1Nc1ccc(I)cc1F (3000 nM)	48%
Nc1ccccc1NC(=O)c1ccc(CNc2nccc(-c3cccnc3)n2)cc1 [Mocetinostat] (3000 nM)	23.6%
Cc1c(CN2CCN(C(=O)[C@H](C)O)CC2)sc2c(N3CCOCC3)nc(-c3cnc(N)nc3)nc12 [GDC-0980] (3000 nM)	16.9%
CS(=O)(=O)N1CCN(Cc2cc3nc(-c4cccc5[nH]ncc45)nc(N4CCOCC4)c3s2)CC1 [GDC-0941] (3000 nM)	31.9%

Problem: normalised viability of C[C@]12C=CC(=O)C=C1CC[C@@H]1[C@@H]2[C@@H](O)C[C@@]2(C)[C@H]1CC[C@]2(O)C(=O)CO [Prednisolone] (3000 nM) on CAL-85-1?
Solution: 117%
